# assayed target: T1, human PD-1 expressed on cells (human, UniProt Q15116 25-288)
# T1 construct: whole, on cells; Treated as one molecule; also called PD-1 expressing Jurkat cells; human PD-1 transfected Jurkat cells
# T1 sequence (Q15116 25-288): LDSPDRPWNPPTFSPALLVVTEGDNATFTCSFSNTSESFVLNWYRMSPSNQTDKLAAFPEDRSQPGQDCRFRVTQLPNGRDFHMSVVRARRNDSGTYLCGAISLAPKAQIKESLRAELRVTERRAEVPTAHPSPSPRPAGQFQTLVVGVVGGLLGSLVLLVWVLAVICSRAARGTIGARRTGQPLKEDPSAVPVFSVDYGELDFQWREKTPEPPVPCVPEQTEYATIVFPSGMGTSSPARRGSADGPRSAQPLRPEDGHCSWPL
# experiment notes: rank among the 16 humanized clones in competition with Alexa 488-labeled murine mAb BAP049 on PD-1-expressing 300.19 cells, first experiment
readout name: Competition Binding 1st exp. (rank)

Answered cases to consult:
{"binder": "humanized mAb BAP049-hum01 (antibody, human IgG4 S228P, kappa, V domains shown, Human IgG4(S228P), human kappa; tested as concentrated supernatant of transiently transfected CHO cells; also called Clone No. 01) VH: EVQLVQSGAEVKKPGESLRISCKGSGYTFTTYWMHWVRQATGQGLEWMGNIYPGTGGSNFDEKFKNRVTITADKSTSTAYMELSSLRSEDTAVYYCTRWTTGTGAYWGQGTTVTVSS VL: EIVLTQSPATLSLSPGERATLSCKSSQSLLDSGNQKNFLTWYQQKPGQAPRLLIYWASTRESGVPSRFSGSGSGTEFTLTISSLQPDDFATYYCQNDYSYPYTFGQGTKVEIKR", "Competition Binding 1st exp. (rank)": 7}
{"binder": "humanized mAb BAP049-hum12 (antibody, human IgG4 S228P, kappa, V domains shown, Human IgG4(S228P), human kappa; tested as concentrated supernatant of transiently transfected CHO cells) VH: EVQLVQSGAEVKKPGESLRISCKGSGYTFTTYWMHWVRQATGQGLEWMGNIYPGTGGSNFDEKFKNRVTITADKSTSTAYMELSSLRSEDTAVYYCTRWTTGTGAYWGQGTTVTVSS VL: DIQMTQSPSSLSASVGDRVTITCKSSQSLLDSGNQKNFLTWYLQKPGQSPQLLIYWASTRESGVPSRFSGSGSGTDFTFTISSLEAEDAATYYCQNDYSYPYTFGQGTKVEIKR", "Competition Binding 1st exp. (rank)": 8}
{"binder": "humanized mAb BAP049-hum04 (antibody, human IgG4 S228P, kappa, V domains shown, Human IgG4(S228P), human kappa; tested as concentrated supernatant of transiently transfected CHO cells) VH: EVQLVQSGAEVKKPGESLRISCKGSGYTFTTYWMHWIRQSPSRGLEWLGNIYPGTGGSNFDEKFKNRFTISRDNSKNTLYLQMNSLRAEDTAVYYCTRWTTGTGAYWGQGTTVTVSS VL: EIVLTQSPATLSLSPGERATLSCKSSQSLLDSGNQKNFLTWYQQKPGKAPKLLIYWASTRESGVPSRFSGSGSGTDFTFTISSLQPEDIATYYCQNDYSYPYTFGQGTKVEIKR", "Competition Binding 1st exp. (rank)": 15}
{"binder": "humanized mAb BAP049-hum05 (antibody, human IgG4 S228P, kappa, V domains shown, Human IgG4(S228P), human kappa; tested as concentrated supernatant of transiently transfected CHO cells; also called Clone No. 05) VH: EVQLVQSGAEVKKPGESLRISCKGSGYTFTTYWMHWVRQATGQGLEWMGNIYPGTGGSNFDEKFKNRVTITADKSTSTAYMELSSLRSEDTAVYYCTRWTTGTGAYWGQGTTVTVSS VL: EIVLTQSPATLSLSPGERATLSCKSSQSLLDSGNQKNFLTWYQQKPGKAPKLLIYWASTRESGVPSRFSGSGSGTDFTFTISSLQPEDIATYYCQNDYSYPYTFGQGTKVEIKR", "Competition Binding 1st exp. (rank)": 5}
{"binder": "humanized mAb BAP049-hum16 (antibody, human IgG4 S228P, kappa, V domains shown, Human IgG4(S228P), human kappa; tested as concentrated supernatant of transiently transfected CHO cells) VH: EVQLVQSGAEVKKPGESLRISCKGSGYTFTTYWMHWVRQAPGQGLEWMGNIYPGTGGSNFDEKFKNRFTISRDNSKNTLYLQMNSLRAEDTAVYYCTRWTTGTGAYWGQGTTVTVSS VL: EIVLTQSPDFQSVTPKEKVTITCKSSQSLLDSGNQKNFLTWYQQKPGQAPRLLIYWASTRESGVPSRFSGSGSGTDFTFTISSLEAEDAATYYCQNDYSYPYTFGQGTKVEIKR", "Competition Binding 1st exp. (rank)": 16}

Record humanized mAb BAP049-hum02 (antibody, human IgG4 S228P, kappa, V domains shown, Human IgG4(S228P), human kappa; tested as concentrated supernatant of transiently transfected CHO cells) VH: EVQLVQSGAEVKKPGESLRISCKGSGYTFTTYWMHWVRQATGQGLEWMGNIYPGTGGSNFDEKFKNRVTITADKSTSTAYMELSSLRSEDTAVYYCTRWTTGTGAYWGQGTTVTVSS VL: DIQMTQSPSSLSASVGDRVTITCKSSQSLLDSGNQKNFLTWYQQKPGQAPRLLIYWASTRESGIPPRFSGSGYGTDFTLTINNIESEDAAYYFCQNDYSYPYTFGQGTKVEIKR , field Competition Binding 1st exp. (rank): 3

Documented Competition Binding 1st exp. (rank) of humanized mAb BAP049-hum03 (antibody, human IgG4 S228P, kappa, V domains shown, Human IgG4(S228P), human kappa; tested as concentrated supernatant of transiently transfected CHO cells) VH: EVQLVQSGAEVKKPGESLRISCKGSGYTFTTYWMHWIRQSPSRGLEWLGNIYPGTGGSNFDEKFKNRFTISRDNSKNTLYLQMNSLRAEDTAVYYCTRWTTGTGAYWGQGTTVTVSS VL: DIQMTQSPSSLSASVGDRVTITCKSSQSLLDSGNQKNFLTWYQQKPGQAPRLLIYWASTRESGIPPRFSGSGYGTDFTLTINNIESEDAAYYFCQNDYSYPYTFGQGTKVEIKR : 8

Origin of the recorded values: patent US20180155427A1
